pKi: −log10 of the molar value.
The following are reported pKi results, target or system Kappa-type opioid receptor (Homo sapiens, UniProt P41145).

Some molecules with known pKi results, for comparison:
smiles_str=NC(=O)[C@H](Cc1ccccc1)NC(=O)[C@@H](Cc1c[nH]c2ccccc12)N1C(=O)O[C@@H](CNC(=O)[C@@H](N)Cc2ccc(O)cc2)C1=O result="< 4.00"
smiles_str=NC(=O)[C@H](Cc1ccccc1)NC(=O)[C@H](Cc1c[nH]c2ccccc12)N1C(=O)O[C@H](CNC(=O)[C@@H](N)Cc2ccc(O)cc2)C1=O result="< 4.00"
smiles_str=NC(=O)[C@H](Cc1ccccc1)NC(=O)[C@@H](Cc1c[nH]c2ccccc12)N1C(=O)O[C@H](CNC(=O)[C@@H](N)Cc2ccc(O)cc2)C1=O result="< 4.00"

Alright, here's another molecule for you.
Enquiry: Observed pKi on Kappa-type opioid receptor (Homo sapiens, UniProt P41145) for `NC(=O)[C@H](Cc1ccccc1)NC(=O)[C@H](Cc1c[nH]c2ccccc12)N1C(=O)O[C@@H](CNC(=O)[C@@H](N)Cc2ccc(O)cc2)C1=O` , please.
Sequence (P41145 whole entry): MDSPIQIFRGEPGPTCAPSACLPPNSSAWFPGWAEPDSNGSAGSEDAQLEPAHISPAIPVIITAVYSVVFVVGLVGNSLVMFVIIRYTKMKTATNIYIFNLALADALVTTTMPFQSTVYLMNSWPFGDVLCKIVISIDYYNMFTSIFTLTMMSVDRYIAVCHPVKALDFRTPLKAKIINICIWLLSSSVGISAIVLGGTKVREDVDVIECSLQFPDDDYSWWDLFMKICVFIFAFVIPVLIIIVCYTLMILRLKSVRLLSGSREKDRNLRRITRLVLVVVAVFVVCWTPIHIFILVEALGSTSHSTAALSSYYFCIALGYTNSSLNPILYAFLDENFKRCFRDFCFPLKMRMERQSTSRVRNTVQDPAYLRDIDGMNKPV
Return: 8.01

* * *

experimental-system: UniProt P35372
assay-details: Agonist activity at human mu opioid receptor expressed in HEK293 assessed as inhibition forskolin-induced cAMP accumulation after 15 mins by EIA
observed-property: pIC50
Keep it numeric: pIC50 is minus log10 of the concentration in mol/L.

Enquiry: Which pIC50 is reported for this compound? `NC(=O)[C@H](Cc1ccccc1)NC(=O)[C@@H](Cc1c[nH]c2ccccc12)N1C(=O)O[C@H](CNC(=O)[C@@H](N)Cc2ccc(O)cc2)C1=O`
Return: 10.80

* * *

pKi: −log10 of the molar value.
The next entries give measured pKi for Mu-type opioid receptor (Homo sapiens).

Examples with their reported pKi follow.
smiles_str=NC(=O)[C@H](Cc1ccccc1)NC(=O)[C@@H](Cc1c[nH]c2ccccc12)N1C(=O)O[C@@H](CNC(=O)[C@@H](N)Cc2ccc(O)cc2)C1=O observed_property=pKi result="< 4.00"
smiles_str=NC(=O)[C@H](Cc1ccccc1)NC(=O)[C@H](Cc1c[nH]c2ccccc12)N1C(=O)O[C@@H](CNC(=O)[C@@H](N)Cc2ccc(O)cc2)C1=O observed_property=pKi result="< 4.00"
smiles_str=NC(=O)[C@H](Cc1ccccc1)NC(=O)[C@@H](Cc1c[nH]c2ccccc12)N1C(=O)O[C@H](CNC(=O)[C@@H](N)Cc2ccc(O)cc2)C1=O observed_property=pKi result=6.62

Here is another molecule to look at.
Enquiry: What value of pKi has been reported for the following molecule? `NC(=O)[C@H](Cc1ccccc1)NC(=O)[C@H](Cc1c[nH]c2ccccc12)N1C(=O)O[C@H](CNC(=O)[C@@H](N)Cc2ccc(O)cc2)C1=O`
Return: < 4.00
